melting point reference

Take a look at these entries with their results.
Query block: Given COc1nc(-c2cccc(-c3ccccc3C(F)(F)F)c2C)ccc1CNCCC(N)=O [Compound A12] , state its recorded melting point.
Result block: 50.5 to 53.5 °C

Query block: Tell me the measured melting point of COc1nc(-c2cccc(-c3ccccc3F)c2C)ccc1CN1CCC(O)CC1 [Compound A4] , please.
Result block: 84 to 86 °C

Query block: So what's the measured melting point for this one? COc1nc(-c2cccc(-c3ccccc3F)c2C)ccc1CN1CCCC(C(N)=O)C1 (centres unmarked) [Compound A6]
Result block: 88 to 91 °C

New cases:
Query block: I'd like to know its melting point. The compound in question is COc1nc(-c2cccc(-c3ccccc3F)c2C)ccc1CN1CCC(C(=O)O)CC1 [Compound A8]
Result block: 218 to 220 °C

Query block: What does the data say about its melting point? Entry: COc1nc(-c2cccc(-c3ccccc3Cl)c2C)ccc1CNCCC(N)=O [Compound A11]
Result block: 49 to 51 °C

Query block: I am curious: what melting point value has been reported for Cc1c(CN2CCC(N3CCC(O)CC3)CC2)cccc1-c1ccccc1F [Compound A2] ?
Result block: 110 to 113 °C

Query block: Please report the recorded melting point for COc1cc(-c2cccc(-c3ccccc3F)c2C)ccc1CN1CCC(O)CC1 [Compound A3] .
Result block: 61.5 to 63.5 °C

Query block: If you can, please state the reported melting point value of COc1nc(-c2cccc(-c3ccc(C(F)(F)F)cc3F)c2C)ccc1CNCCC(N)=O [Compound A18] .
Result block: 137 to 139 °C

###

- measured-on: PD-1/PD-L1 interaction (Homo sapiens)
- Construct: purchased Cisbio 64ICP01PEG
- Sequence (Q9NZQ7 19-238 limits assumed): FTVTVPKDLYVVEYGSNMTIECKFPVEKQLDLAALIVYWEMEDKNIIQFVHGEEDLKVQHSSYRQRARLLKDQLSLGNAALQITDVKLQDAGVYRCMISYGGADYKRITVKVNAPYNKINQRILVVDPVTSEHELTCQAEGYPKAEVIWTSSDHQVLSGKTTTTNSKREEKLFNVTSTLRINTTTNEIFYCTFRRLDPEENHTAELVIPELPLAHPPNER
- experiment-notes: HTRF-based PD-1/PD-L1 binding assay
- condition-summary: 1 μM compound, HTRF; read-out: Inhibitory Rate (%) 1 μM
# maps each entry to its inhibition at 1 µM
Could you give me the number in %? Just the number is fine.

Query block: Which inhibition at 1 µM value is on record for `Cc1c(CN2CCC(N3CCC(O)CC3)CC2)cccc1-c1ccccc1F` ?
Result block: 6.7

Query block: I have this compound here, `COc1cc(-c2cccc(-c3ccccc3F)c2C)ccc1CN1CCC(O)CC1` , and I need its recorded inhibition at 1 µM.
Result block: 96.2

Query block: Could you share which inhibition at 1 µM value was measured for `Cc1ccccc1-c1cccc(OCCCN2CCC(O)CC2)c1C.Cl` ?
Result block: 90

Query block: Could you share which inhibition at 1 µM value was measured for `COc1nc(-c2cccc(-c3ccccc3F)c2C)ccc1CN1CCC(O)CC1` ?
Result block: 98

###

- measured-on: PD-1/PD-L1 interaction (Homo sapiens)
- Construct: purchased Cisbio 64ICP01PEG
- experiment-notes: HTRF-based PD-1/PD-L1 binding assay
- condition-summary: 0.1 μM compound, HTRF; read-out: Inhibitory Rate (%) 0.1 μM
observable: inhibition at 0.1 µM (%)
State the answer as a number, implicitly in %.

Solved entries:
Query block: Form field: inhibition at 0.1 µM recorded for `Cc1c(CN2CCC(N3CCC(O)CC3)CC2)cccc1-c1ccccc1F` with PD-1/PD-L1 interaction (Homo sapiens) (enter value)
Result block: 8.5

Query block: API: value(readout= inhibition at 0.1 µM, system= PD-1/PD-L1 interaction (Homo sapiens), query= `Cc1ccccc1-c1cccc(OCCCN2CCC(O)CC2)c1C.Cl` )
Result block: 56

Query block: Give inhibition at 0.1 µM (PD-1/PD-L1 interaction (Homo sapiens)) of the following compound: `COc1nc(-c2cccc(-c3ccccc3F)c2C)ccc1CN1CCC(O)CC1`
Result block: 71

Next compound, inhibition at 0.1 µM to be filled in.
Query block: Form entry - test system: PD-1/PD-L1 interaction (Homo sapiens); read-out: inhibition at 0.1 µM; compound: `COc1cc(-c2cccc(-c3ccccc3F)c2C)ccc1CN1CCC(O)CC1`
Result block: 74.5
